# Tested on: E. multilocularis metacestodes
# Protocol notes: PGI assay: phosphoglucose isomerase release from damaged metacestodes
# Assay type: cell-based, Echinococcus multilocularis
# Reported conditions: 10 μM, 5 days, single wells, relative to DB1127 (10 μM)
The entries below come with measured PGI (% of DB1127 at 10 uM) values attached.
Value expressed in %; do not type the unit.

Below are worked cases with known answers.
Oc1ccc(Cl)cc1CNc1nc2ccccc2[nH]1 :: -85.60
CCCCN(CCCC)S(=O)(=O)c1ccc(NC(=O)c2ccco2)cc1 :: -23.46

Task: # input compound: CCOc1ccc(-c2nc(NC(=O)c3cccc(S(C)(=O)=O)c3)sc2C)cc1 ; wanted: its PGI (% of DB1127 at 10 uM)
Result: -25.30

Task: Requested read-out: PGI (% of DB1127 at 10 uM). Entry: CCCCCCc1cc2cc(-c3nc4ccccc4[nH]3)c(=Nc3ccccc3C)oc2cc1O
Result: -1.88

Task: Fill blank: measured PGI (% of DB1127 at 10 uM) of the compound O=C(NC1CCN(Cc2ccccc2)CC1)c1cc(-c2cccnc2)nc2ccc(Cl)cc12 is ____.
Result: -15.64

Task: Given CCCCC(O)(c1ccc(Cl)cc1)C(CN1CCOCC1)c1ccc(Cl)cc1.Cl (stereo not shown) , state its recorded PGI (% of DB1127 at 10 uM).
Result: -6.41

Task: Name the reported PGI (% of DB1127 at 10 uM) value associated with the compound CCOc1ccc(-n2cc(-c3ccccc3)c3c(SCc4cc(C)ccc4C)ncnc32)cc1
Result: -19.26

Task: Quick one: PGI (% of DB1127 at 10 uM) of CCCc1c(CC)c(=N)c2ccccc2n1C ?
Result: -40.39

Task: Look up PGI (% of DB1127 at 10 uM): C=CCc1c(C)nc2ccccc2c1O
Result: -48.01

Task: Return reported PGI (% of DB1127 at 10 uM); argument: CC(C)OCc1cc(CN2CCN(c3cccc(Cl)c3)CC2)c(O)c2ncccc12
Result: -14.40

Task: Quick one: PGI (% of DB1127 at 10 uM) for CCOc1cccc2sc(N(Cc3cccnc3)C(=O)C3CCCCC3)nc12 ?
Result: -26.73

Task: What PGI (% of DB1127 at 10 uM) value was documented for this compound, O=C(NC(c1ccccc1)c1ccc2cccnc2c1O)c1ccccc1 (stereo not shown) ?
Result: -67.16

Task: I would be grateful if you could share the reported PGI (% of DB1127 at 10 uM) for CC1CCCCN1CCCNC(=O)c1ccc2c(c1)sc1nc(-c3ccc(F)cc3)cn12 (stereo not shown) .
Result: -120.82

Task: If you can, please state the reported PGI (% of DB1127 at 10 uM) value of Oc1ccc(-c2nc(-c3ccc4oc5ccc(-c6[nH]c(-c7ccc(O)cc7)nc6-c6ccccc6)cc5c4c3)c(-c3ccccc3)[nH]2)cc1 .
Result: -5.15

Task: Looking for the measured PGI (% of DB1127 at 10 uM) of O=C(CCc1ccccc1)c1ccccc1OCC(O)CN1CCCCC1 (stereo not shown) , can you help?
Result: 4.79

Task: Value lookup for PGI (% of DB1127 at 10 uM); key = Cc1cc(Nc2ccc(C)c(Cl)c2)n2nc(C(F)(F)F)nc2n1
Result: -25.13

Task: Entry COc1ccc(Nc2cc(C)nc(NCc3ccccc3)n2)cc1 : reported PGI (% of DB1127 at 10 uM) = ?
Result: 17.48

Task: Please give the measured PGI (% of DB1127 at 10 uM) for this compound: CCOC(=O)c1c[nH]c2ccc(CC)cc2c1=O
Result: 80.46
